Could you please report measured Kp at 12 h for the items listed next?
Experiment: Pharmacokinetics in mice after single oral dosing, blood and liver exposure by LC-MS
Assay type: in vivo, mice (C57/bl6/J)
Details: male, C57/bl6/J, mouse, liver/blood, single oral dose 20 mg/kg, time point 12 h, read-out: liver/blood ratio
Give bare numbers.

For orientation, consider the following solved cases.
## Input Look up Kp at 12 h of Cc1ccc2ccccc2c1C(=O)N(Cc1ccc(-c2cccc(C(C)(O)C(=O)O)c2)cc1)Cc1ccc(C(F)(F)F)o1 (stereo not drawn) and report it.
## Output 129

## Input Provide measured Kp at 12 h value, entry: Cc1ccc2ccccc2c1C(=O)N(Cc1ccc(-c2cc(F)c(CO)c(S(=O)(=O)CC(=O)O)c2)cc1)Cc1ccc(C(F)(F)F)o1
## Output 27

## Input For Cc1ccc2c(F)cccc2c1C(=O)N(Cc1ccc(-c2cccc(C(C)(C)C(=O)O)c2)cc1)Cc1ccc(C(F)(F)F)o1 , write its Kp at 12 h.
## Output 11

Each compound below has a reported value. Please supply its Kp at 12 h.
1. CCc1nc2ccccc2c(C(=O)N(Cc2ccc(-c3cccc(C(C)(C)C(=O)O)c3)cc2)Cc2ccc(C(F)(F)F)o2)c1C
2. Cc1cc(C)c(CN(Cc2ccc(-c3cccc(S(=O)(=O)CC(=O)O)c3)cc2)Cc2ccc(C(F)(F)F)o2)c(C)c1
3. Cc1ccc2ccccc2c1C(=O)N(Cc1ccc(-c2cccc(C(C)(C)C(=O)O)c2)cc1)Cc1ccc(C(F)(F)F)o1
4. Cc1ccc2ccccc2c1CN(Cc1ccc(-c2cccc(C(C)(C)C(=O)O)c2)cc1)Cc1ccc(C(F)(F)F)o1

## Output
1: 49; 2: 54; 3: 3.3; 4: 5.7

Give Kp at 12 h for each of the items listed below.
1. Cc1cc(C)c(CN(Cc2ccc(-c3cncc(S(=O)(=O)CC(=O)O)c3)cc2)Cc2ccc(C(F)(F)F)o2)c(C)c1
2. Cc1cc(C)c(CN(Cc2ccc(-c3cccc(C(C)(C)C(=O)O)c3)cc2)Cc2ccc(C(F)(F)F)o2)c(C)c1

## Output
2.4
2.7
